- System: K562 cells
- Run Description: Anti-K562 cell proliferation activity test (CCK-8)
- Assay type: cell-based
- Setup Conditions: Homo sapiens, 48 hours, read-out: median inhibitory concentration (IC50)
- Description: The operation method of the anti-K562 cell proliferation activity test is as follows: 100 μL of K562 cell suspension and 10 μL of test compounds of different concentrations were prepared in a 96-well plate. The culture plate was placed in an incubator for incubation for 48 hours (37° C., 5% CO2). 10 μL of CCK-8 solution was added to each well. The culture plate was placed in an incubator for incubation for 1-4 hours. The absorbency was measured at 450 nm with a microplate reader. […]
Measurement Label: IC50 (nM)

[
  {
    "Molecule": "Cc1nc(Nc2ncc(C(=O)Nc3c(C)cccc3Cl)s2)cc(N2CCN(CCCCOc3ccc(/N=N/c4ccc(C(=O)Nc5cccc6c5CN(C5CCC(=O)NC5=O)C6=O)cc4)cc3)CC2)n1 (stereo not shown) [Compound 4C]",
    "Reported": 68
  }
]
